# Test system: SW-620
# TEST NAME: NCI tumour cell line growth inhibition, 48 h
Active and inactive are the calls of the source. Rule as the data show it: active = GI50 up to about 1.1 µM and inactive = higher.
Classes used: T (active), F (inactive)

| COMPOUND | DISCRETE LABEL |
| --- | --- |
| COc1cc2c(cn1)[nH]c1ccccc12 | F |
| COc1ccc(C(=O)NCCN(C)C)c2nc3ccccc3cc12 | T |
| COc1ccc(/C=C2/C(=O)N(/C=C3\C(=O)Oc4ccccc4C3=O)/C(=N/C(C)=O)N2C)cc1OC | F |
| COc1ccccc1NC(=O)CC(=O)N1N=C(c2ccccc2)C(/N=N/c2ccc(Cl)cc2)C1=O (centres undefined) | F |
| CN(C)/C=C/C(=CC=[N+](C)C)/C=C/N(C)C.[O-][Cl+3]([O-])([O-])[O-] | F |
| COC(=O)C1(C(=O)OC)CC2=C(S(=O)(=O)c3ccccc3)C[C@H](C#N)[C@H]2C1 | F |
| CC1=CC2CC(C)=C(CC[C@]3(C)CC[C@H]([C@@H](C)C(=O)O)OO3)C(C)(C)C2CC1 (some centres undefined) | T |
| C/C(=C\COP(=O)(O)OP(=O)(O)O)CC/C=C(\C)CNc1c(F)c(F)c(F)c(F)c1F | F |
| O=C1/C(=C/c2ccc(Cl)cc2)N=C(c2ccccc2)N1C1Nc2cc3c(cc2S1)NC(N1C(=O)/C(=C/c2ccc(Cl)cc2)N=C1c1ccccc1)S3 (centres undefined) | F |
| COC1(C)Cc2c(c(C)c(O)c3c2C(=O)C=C(Cl)C3=O)O1 (centres undefined) | F |
| C=C(C)COC(=O)COCC(=O)OCC(=C)C | F |
| COC(=O)C1=C(OC(=O)/C(=C/c2ccc(Cl)cc2)c2ccc(Cl)cc2)C(C(=O)OC)[C@@]2(O)[C@@H](C(=O)OC)[C@H](C)C[C@@H]1[C@@H]2C(=O)OC (some centres undefined) | F |
| NNS(=O)(=O)c1cc(C(=O)O)cc(C(=O)O)c1 | F |
| CCOC(=O)c1c(C)n(C)c2c1cc(O)c1[nH]c3c(c12)CCCC3 | F |
| Cn1cnc([N+](=O)[O-])c1[Se]c1ncnc2nc[nH]c12 | F |
| COc1cc(CCCC(O)COc2cccc3c2C2(O)CCCCCC32)cc(OC)c1 (centres undefined) | F |
| OC(CC1SCCCS1)c1ccccc1 (centres undefined) | F |
| CC(CNC(N)=O)NC(N)=O (centres undefined) | F |
| CC(=O)Nc1c(C(=N)C#N)ncn1CCO | F |
| COc1ccc2c3c([nH]c2c1)CCN(Cc1ccccc1)C3 | F |
| COc1cc2ccc3ccncc3c2cc1OC | F |
| CC(C)NCCCC(C)Nc1ccnc2ccc3nn(C)nc3c12 (centres undefined) | F |
| COC1(C(C)(C)C)C=C(C(C)(C)C)P(=O)(O)O1 (centres undefined) | F |
| CSC(=Nc1nnc(-c2ccc([N+](=O)[O-])cc2)s1)SC | F |
| COc1cc2c(c(OC)c1OC)-c1ccc(SC)c(=O)cc1[C@@H](OC(C)=O)CC2 | T |
| O=C(Nc1ccc([N+](=O)[O-])cc1C(=O)O)c1ccc([N+](=O)[O-])cc1 | F |
| N#Cc1c(N2CCCC2)nsc1Nc1ccccc1 | F |
| NC(=O)C(c1ccccc1)N1CCOCC1 (centres undefined) | F |
| CC(NC(=O)C(NC(=O)CNC(=O)OC(C)(C)C)C(C)C)C(=O)Oc1c(Cl)c(Cl)c(Cl)c(Cl)c1Cl (centres undefined) | F |

----------
# Test system: SNB-19
# TEST NAME: NCI tumour cell line growth inhibition, 48 h
Active and inactive are the calls of the source. No stated cut-off is given here; in the data, active = GI50 up to about 1.1 µM and inactive = higher.
Classes used: T for active, F for inactive

| MOLECULE | DISCRETE LABEL |
| --- | --- |
| CC1(CO)C(O)CCC2(C)C1C(O)CC1CC3CC12CCC3(O)CO (centres undefined) | F |
| COC(=O)C1(C(=O)OC)CC2=C(S(=O)(=O)c3ccccc3)C[C@H](C#N)[C@H]2C1 | F |
| CCOC(=O)C(Cc1ccc(OC(=O)OC(C)(C)C)cc1)NC(=O)OC(C)(C)C (centres undefined) | F |
| NC(=S)N/N=C1/C(=O)N(c2ccc(Cl)cc2Cl)C(=O)C(=O)C1c1nc2ccccc2s1 (centres undefined) | F |
| COc1ccc(NC(=O)CC/C(CC(=O)C(C)(C)C)=N\NC(=O)C(=O)NN)cc1 | F |
| CC(C)/C(Cl)=N\OC(=O)Nc1ccccc1F | F |
| O=[N+]([O-])c1ccc(CNC2=NNS(=O)(=O)c3ccccc32)cc1 | F |
| O=C(CSCC(=O)N/N=C\c1cccc(Br)c1)N/N=C\c1cccc(Br)c1 | F |
| C[C@@H](NC(C#N)c1ccco1)c1ccccc1 (some centres undefined) | F |
| CC(=O)O[C@H]1C[C@H](O[C@H]2[C@@H](O)C[C@H](O[C@H]3[C@@H](O)C[C@H](O[C@H]4CC[C@@]5(C)[C@H](CC[C@@H]6[C@@H]5CC[C@]5(O)[C@@H](C7=CC(=O)OC7)CC[C@]65O)C4)O[C@@H]3C)O[C@@H]2C)O[C@H](C)[C@H]1O[C@@H]1O[C@H](CO)[C@@H](O)[C@H](O)[C@H]1O | T |
| O=c1nc(N2CCN(c3ccccc3)CC2)ccn1C1OC(CO)C(O)C1O (centres undefined) | F |
| Clc1cccc2[nH]ncc12 | F |
| COc1cc(C2C=C(c3ccccc3)Oc3cc4c(cc32)OCO4)cc(OC)c1OC (centres undefined) | F |
| CC(C)C(/C=C/c1ccc(Cl)c(Cl)c1)=N\NC(=O)N/N=C(/C=C/c1ccc(Cl)c(Cl)c1)C(C)C | F |
| Nc1ncnc2c1ncn2[C@@H]1C[C@@H]1CO | F |
| CC(=O)Oc1ccc2c(c1)c1c(OC(C)=O)c3ccccc3c(OC(C)=O)c1n2Cc1cccc(C)c1 | F |
| COc1cc(C(=O)NNC(=O)c2cc(Br)ccc2NC(=O)c2cccs2)cc(OC)c1OC | F |
| CC1(C)CC2C(=O)c3ccccc3NC2c2ccccc21 (centres undefined) | F |
| COc1cc(NC(C)=O)ccc1C(=O)N/N=C/c1ccc(Cl)cc1Cl | F |
| C#C[C@]1(O)CC[C@H]2[C@@H]3CCc4cc(O)ccc4[C@H]3CC[C@@]21C [ETHINYL ESTRADIOL] | F |
| CC(=O)OC1=CC2=CC[C@H]3[C@@H]4CCC(=O)[C@@]4(C)CC(=O)[C@]3(S)[C@@]2(C)CC1 | F |
| CCOC(=O)/C(C(C)=O)=C1/N[C@H](C(=O)OCC)CS1 | F |
| COc1ccc(C(=O)NCCN(C)C)c2nc3ccccc3cc12 | T |
| COc1ccc(NC(=O)/C(=C/c2ccc(N(CCC#N)CCC#N)cc2)NC(=O)c2cc([N+](=O)[O-])ccc2Cl)cc1 | F |
| COc1cc(/C=C2\N=C(c3ccccc3)N(/N=C3\C(=O)Nc4ccccc43)C2=O)cc(OC)c1OC | F |
| C1CCN2CC3CCCN4CCCC(C2C1)C34 (centres undefined) | F |
| CC(=O)Nc1c(C(=N)C#N)ncn1CCO | F |
| C=C(C)[C@H]1C2=CC(C)=C(O2)[C@@H](O)[C@H](C(=C)C)CCC2=C[C@H]1OC2=O [KALLOLIDE A] | F |
| CN(C)c1cc2ccccc2oc1=O | F |
| COc1ccc(/C=C/C(=O)Oc2ccccc2OC)cc1 | F |
| NC(=O)N/N=C/c1ccccc1O | F |
| COc1ccc2nc3ccc(OC)cc3c([S+]([O-])Cc3ccccc3)c2c1 (centres undefined) | F |
| CC(C)(C)c1ccc(-c2nc3ccccc3c(=O)o2)cc1 | F |
| [N-]=[N+]=C1C(=O)C2CC3CC1CC2C3 (centres undefined) | F |
| CC(=O)OCC1OC(OC2C(COC(C)=O)OC(Sc3ccccc3C)C(OC(C)=O)C2OC(C)=O)C(OC(C)=O)C(OC(C)=O)C1OC(C)=O (centres undefined) | F |
| CN(C)Cc1ccc(O)c(CN(C)C)n1 | F |
| C=CC(C)(C)c1c(OC)oc2ccc(OC)c(C)c2c1=O | F |
| CN(C)CCNCc1ccc2c(-c3ccccc3)nc3cc(Cl)c(Cl)cc3n12 | F |
| O=C(O)Cc1ccccc1CCc1ccccc1Cl | F |

----------
# Tested on: SK-MEL-5
# TEST NAME: NCI tumour cell line growth inhibition, 48 h
Activity calls are given as the source filed them. No stated cut-off is given here; in the data, active = GI50 up to about 1.1 µM and inactive = higher.
Classes used: active, inactive

| MOLECULE | DISCRETE LABEL |
| --- | --- |
| Cn1c2c(c3ccccc31)CCN(CCCN1CCN(c3ccccc3)CC1)C2=O | inactive |
| O=C(/C=C/c1ccc(Cl)cc1)c1ccc(Cl)c(Cl)c1 | inactive |
| O=c1c2cc3c(=O)n4c(cc(-c5ccccc5)c5cc(Cl)ccc54)nc3cc2nc2cc(-c3ccccc3)c3cc(Cl)ccc3n12 | inactive |
| COc1ccc(NC(=O)/C(=C/c2ccc(N(CCC#N)CCC#N)cc2)NC(=O)c2cc([N+](=O)[O-])ccc2Cl)cc1 | inactive |
| C1CCN2CC3CCCN4CCCC(C2C1)C34 (stereo unspecified) | inactive |
| NC(=S)N/N=C1/C(=O)N(c2ccc(Cl)cc2Cl)C(=O)C(=O)C1c1nc2ccccc2s1 (stereo unspecified) | inactive |
| CN(C)Cc1ccc(O)c(CN(C)C)n1 | inactive |
| O=C1Sc2cc3ccccc3cc2C(=O)Sc2cc3ccccc3cc21 | inactive |
| O=C(CC(=O)CC(O)(C(F)(F)F)C(F)(F)F)CC(O)(C(F)(F)F)C(F)(F)F | inactive |
| O=C(CC(O)(C(F)(F)F)C(F)(F)Cl)CC(O)(C(F)(F)F)C(F)(F)Cl (stereo unspecified) | inactive |
| O=[N+]([O-])c1ccc(CNC2=NNS(=O)(=O)c3ccccc32)cc1 | inactive |
| O=C(O)C(Cc1ccccc1-c1ccccc1)C(=O)O | inactive |
| Cc1ccccc1NC(=O)c1ccc([N+](=O)[O-])cc1 | inactive |
| O=C1C=CC2(O[C@H](c3ccccc3)[C@@H](c3ccccc3)O2)[C@H](Sc2ccccc2O)C1 | active |
| CN(C)CCNc1ccc2c(=O)n(CCN(C)C)c(=O)n3c4ccc([N+](=O)[O-])cc4c(=O)c1c23 | active |
| CCOP(=O)(CN1CCNCCN(CP(=O)(OCC)OCC)CC1)OCC | inactive |
| CC(=O)OC1=CC2=CC[C@H]3[C@@H]4CCC(=O)[C@@]4(C)CC(=O)[C@]3(S)[C@@]2(C)CC1 | inactive |
| Cc1c(C(=O)Nc2ccccc2)nnn1-c1ccnc2cc(C(F)(F)F)ccc12 | inactive |
| CC1(C)CC2C(C1=O)C1(C)CCCC2(C)C1=O (stereo unspecified) | inactive |
| c1ccc2c(c1)[nH]c1c2nc2ccccn21 | inactive |
| O=c1n(CCO)nc2n1CCCN2 | inactive |
